Target: Gal(b1-4)GlcNAc(b1-3)Gal(b1-4)GlcNAc(b1-3)Gal(b1-4)GlcNAc(b1-3)Gal(b1-4)GlcNAc(b1-2)Man(a1-3)[Gal(b1-4)GlcNAc(b1-3)Gal(b1-4)GlcNAc(b1-3)Gal(b1-4)GlcNAc(b1-3)Gal(b1-4)GlcNAc(b1-2)Man(a1-6)]Man(b1-4)GlcNAc(b1-4)[Fuc(a1-6)]GlcNAc
Assay: glycan array binding signal (z-score within array); higher = stronger binding
Conditions: glycan notation: IUPAC condensed, linker removed
About 410 targets per protein were measured; listed, in parts, are those with the strongest signals and a random draw of the rest.

# Binder, glycan array binding signal (z-score)
data = [
    ("LCA (Lens culinaris), P02870 (protein) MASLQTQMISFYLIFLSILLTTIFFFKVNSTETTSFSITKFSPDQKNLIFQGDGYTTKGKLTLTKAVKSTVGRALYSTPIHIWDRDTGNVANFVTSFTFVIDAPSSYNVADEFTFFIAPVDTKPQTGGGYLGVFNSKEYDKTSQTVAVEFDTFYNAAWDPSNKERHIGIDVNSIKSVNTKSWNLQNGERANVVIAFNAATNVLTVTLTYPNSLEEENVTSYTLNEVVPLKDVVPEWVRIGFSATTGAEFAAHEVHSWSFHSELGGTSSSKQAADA", 3.87),
]
